Test: concentration in rat plasma in the anticoagulant study after rectal application
Assay type: in vivo
Conditions: plasma, rectal 5 mg/kg, 180 min

| Molecule | Unit | concentration at 3 h |
| --- | --- | --- |
| Cl.Cl.N=C(N)c1cccc(C[C@H](NS(=O)(=O)c2ccc3ccccc3c2)C(=O)N2CCN(CCO)CC2)c1 [Compound 3] | ng/mL | 49 |
| CC(=O)N1CCN(C(=O)[C@H](Cc2cccc(C(=N)N)c2)NS(=O)(=O)c2ccc3ccccc3c2)CC1.Cl [Compound 2] | ng/mL | 40 |
| CS(=O)(=O)N1CCN(C(=O)[C@H](Cc2cccc(C(=N)N)c2)NS(=O)(=O)c2ccc3ccccc3c2)CC1.Cl [Compound 5] | ng/mL | 10 |
| CN(C)C(=O)N1CCN(C(=O)[C@H](Cc2cccc(C(=N)N)c2)NS(=O)(=O)c2ccc3ccccc3c2)CC1 [Compound 6] | ng/mL | 83 |
